The measurements presented in this section are drawn from ChEMBL document CHEMBL3865800.

test: Cytotoxicity against mouse primary mesangial cells assessed as reduction in cell viability after 48 hrs by MTT assay; assay type: toxicity
One threshold, 10 µM, splits the recorded IC50 at 48 h values: lower ones are yes (1), equal or higher ones are no (0).

Record CCN(CC)CCCCC(=O)Nc1ccc(Nc2nc(-c3ccccc3NC(=O)CCCCN(CC)CC)nc3ccccc23)cc1 : is its IC50 at 48 h strictly below 10 µM?
no (0)

Here is the next compound: O=C(CCCN1CCCC1)Nc1ccc(Nc2nc(-c3ccccc3NC(=O)CCCN3CCCC3)nc3ccccc23)cc1
no (0)

Here is the next compound: O=C(CCN1CCCC1)Nc1ccc(Nc2nc(-c3ccccc3NC(=O)CCN3CCCC3)nc3ccccc23)cc1
no (0)

Here is the next compound: O=C(CN1CCCC1)Nc1ccc(Nc2nc(-c3ccccc3NC(=O)CN3CCCC3)nc3ccccc23)cc1
no (0)

Here is the next compound: CCN(CC)CCC(=O)Nc1ccc(Nc2nc(N(CC)CC)nc3ccccc23)cc1
yes (1)

Here is the next compound: CCN(CC)CCC(=O)Nc1ccc(Nc2nc(-c3ccccc3N)nc3ccccc23)cc1
yes (1)

Here is the next compound: CCN(CC)CCNCCC(=O)Nc1ccc(Nc2nc(-c3ccccc3NC(=O)CCNCCN(CC)CC)nc3ccccc23)cc1
no (0)

Here is the next compound: O=C(CCN1CCCCC1)Nc1ccc(Nc2nc(-c3ccccc3NC(=O)CCN3CCCCC3)nc3ccccc23)cc1
yes (1)

Here is the next compound: CCN(CC)CCCOc1ccc(Nc2nc(N(CC)CC)nc3ccccc23)cc1
yes (1)

Here is the next compound: CCN(CC)CCCNCCC(=O)Nc1ccc(Nc2nc(-c3ccccc3NC(=O)CCNCCCN(CC)CC)nc3ccccc23)cc1
no (0)

Here is the next compound: CN1CCN(CC(=O)Nc2ccc(Nc3nc(-c4ccccc4NC(=O)CN4CCN(C)CC4)nc4ccccc34)cc2)CC1
no (0)

Here is the next compound: CCN(CC)CCC(=O)Nc1ccc(Nc2nc(Cl)nc3ccccc23)cc1
no (0)

Here is the next compound: CCN(CC)CCC(=O)Nc1ccc(Nc2nc(-c3ccccc3NC(=O)CCN(CC)CC)nc3ccccc23)cc1
no (0)

Here is the next compound: CN(C)CCCNCCC(=O)Nc1ccc(Nc2nc(-c3ccccc3NC(=O)CCNCCCN(C)C)nc3ccccc23)cc1
no (0)

Here is the next compound: CCN(CC)CC(=O)Nc1ccc(Nc2nc(-c3ccccc3NC(=O)CN(CC)CC)nc3ccccc23)cc1
yes (1)
